Reference source: paper PMC8388802

# System: K. pneumoniae (ATCC BAA-1705)
# Assay type: cell-based, Klebsiella pneumoniae
# Method: […] Antimicrobial assays were conducted in 96-well plates, which were divided into five groups, including a negative control group (PBS), a positive control group (20 μg/mL norfloxacin for bacteria and 10 μg/mL amphotericin B for yeast), vehicle control (1% DMSO), blank control (MHB or YPD-B), and a peptide group. […] After incubation at 37 °C overnight, the absorbance of each well was tested by a microplate reader (EL808, Biolise BioTek Winooski, Minneapolis, USA) under a 550 nm wavelength. […]
Where a SMILES comes first, the peptide text is derived from it.
Recorded MBC values for a group of molecules are listed next.
Endpoint: MBC

{"columns": ["Molecule", "Experimental Value"],
 "data": [
  ["CC[C@H](C)[C@H](NC(=O)[C@@H](NC(=O)CN)C(C)C)C(=O)N[C@H](C(=O)N[C@@H](CCCCN)C(=O)N[C@H](C(=O)N[C@@H](CC(C)C)C(=O)N[C@@H](CCCCN)C(=O)NCC(=O)N[C@@H](C)C(=O)N[C@@H](C)C(=O)N[C@@H](CCCCN)C(=O)N[C@H](C(=O)N[C@H](C(N)=O)C(C)C)[C@@H](C)O)[C@@H](C)O)[C@@H](C)CC [Peptide 14-tB2U-K] (H-GVIIKTLKGAAKTV-NH2)", ">512 µM"],
  ["CC[C@H](C)[C@H](NC(=O)[C@@H](NC(=O)CN)C(C)C)C(=O)N[C@H](C(=O)N[C@@H](CCCCN)C(=O)N[C@H](C(=O)N[C@@H](CC(C)C)C(=O)N[C@@H](CCCCN)C(=O)NCC(=O)N[C@@H](C)C(=O)N[C@@H](C)C(=O)N[C@@H](CCCCN)C(=O)N[C@H](C(=O)N[C@H](C(=O)N[C@@H](C)C(=O)N[C@@H](C)C(=O)N[C@@H](CCCCN)C(=O)N[C@@H](CC(C)C)C(=O)N[C@@H](CC(C)C)C(N)=O)C(C)C)[C@@H](C)O)[C@@H](C)O)[C@@H](C)CC [tB2U-K] (H-GVIIKTLKGAAKTVAAKLL-NH2)", "128 µM"],
  ["CC[C@H](C)[C@H](NC(=O)[C@@H](NC(=O)CN)C(C)C)C(=O)N[C@H](C(=O)N[C@@H](CCCCN)C(=O)N[C@@H](CCCCN)C(=O)N[C@@H](CC(C)C)C(=O)N[C@@H](CCCCN)C(=O)NCC(=O)N[C@@H](C)C(=O)N[C@@H](C)C(=O)N[C@@H](CCCCN)C(=O)N[C@@H](CCCCN)C(=O)N[C@H](C(=O)N[C@@H](C)C(=O)N[C@@H](C)C(=O)N[C@@H](CCCCN)C(=O)N[C@@H](CC(C)C)C(=O)N[C@@H](CC(C)C)C(N)=O)C(C)C)[C@@H](C)CC [tB2U-6K] (H-GVIIKKLKGAAKKVAAKLL-NH2)", "128 µM"],
  ["CC[C@H](C)[C@H](NC(=O)[C@@H](NC(=O)CN)C(C)C)C(=O)N[C@H](C(=O)N[C@@H](CCCCN)C(=O)N[C@H](C(=O)N[C@@H](CC(C)C)C(N)=O)[C@@H](C)O)[C@@H](C)CC [Peptide 7-tB2U-K] (H-GVIIKTL-NH2)", ">512 µM"],
  ["CC[C@H](C)[C@H](NC(=O)[C@@H](NC(=O)CN)C(C)C)C(=O)N[C@H](C(=O)N[C@@H](CC(=O)O)C(=O)N[C@H](C(=O)N[C@@H](CC(C)C)C(=O)N[C@@H](CCCCN)C(=O)NCC(=O)N[C@@H](C)C(=O)N[C@@H](C)C(=O)N[C@@H](CCCCN)C(=O)N[C@H](C(=O)N[C@H](C(=O)N[C@@H](C)C(=O)N[C@@H](C)C(=O)N[C@@H](CCC(=O)O)C(=O)N[C@@H](CC(C)C)C(=O)N[C@@H](CC(C)C)C(N)=O)C(C)C)[C@@H](C)O)[C@@H](C)O)[C@@H](C)CC [tB2U-α] (H-GVIIDTLKGAAKTVAAELL-NH2)", ">512 µM"]
]}
